From: PubChem BioAssay (NCI)

# System: OVCAR-8 ovarian
# PROCEDURE_SUMMARY: NCI-60 one-dose screen, 48 h (100 = growth as untreated, 0 = no growth, -100 = all killed)
# STUDY_CONDITIONS: 10 µM unless noted
About 83,000 compounds went through this panel and 20% of them were active in at least one assay; those are over-represented in the sample as a whole. Activity calls are given as the source filed them. How the source made its calls: active means growth percent below 10; inactive means the rest.
REPORTED_PROPERTY: growth

MOLECULE: CC(C)(C)C(=O)OCOP(=O)(OCOC(=O)C(C)(C)C)C1CCCN(O)C1=O (centres undefined)
growth: 5.69% (active)

MOLECULE: O=C1C(Cl)=C(N2CCOCC2)C(=O)c2ccccc21
growth: 68.2% (inactive)

MOLECULE: CC(C)CCC(=O)O[C@H]1CC[C@H]2[C@@H]3CCC4=CC(=O)CC[C@]4(C)[C@H]3CC[C@]12C
growth: 104% (inactive)

# molecule c1ccc(COc2ccc3[nH]cc(CCN(Cc4ccccc4)Cc4ccccc4)c3c2)cc1 ; its growth = 98.1% (inactive)
